Hi there, I'd appreciate the recorded inhibition for every entry that follows.
Test: Mycobacterium tuberculosis growth inhibition, primary screen (AID 1259343)
Settings: at 10 µM, stronger effect = higher value
Out of some 6,200 compounds screened, about 2,900 (47%) were called active. So high a share suggests a set chosen from earlier hits. The list shows a part of the results.
Supply the numeric figure in %, leaving out any unit text.

In: So what's the measured inhibition for this one? CN(Cc1ccc(Br)cc1)CC(O)COc1cccc(Br)c1 (configuration not stated)
Out: 46.8

In: Then what about the compound "Cc1cc(N)n(-c2nc3c(cnn3-c3ccccc3)c(=O)[nH]2)n1" ?
Out: 5.14

In: // next record "O=C(COc1ccc2oc3c(c2c1)CCCC3)NCc1cccnc1"
Out: -6.78

In: Lookup CC(CCc1ccccc1)N=c1c([N+](=O)[O-])nn(-c2ccccc2)n1O (configuration not stated)
Out: 102

In: How about this compound: "O=C(NN=Cc1ccco1)c1cc(Br)ccc1O"
Out: 98.8

In: Here is the next compound: "S=C(NC1Cc2ccccc2C1)N1CCCC1"
Out: 14.2

In: Now the compound "Cc1cc2c(F)ccc(C)c2nc1N1CCC(O)(C(=O)O)CC1"
Out: 86

In: And "Cc1cc(NC(=O)c2ccccc2C)n(-c2nc(C)c(C)c(=O)[nH]2)n1" ?
Out: -21.7

In: And then "COCCn1c(O)c(C=NNC(=O)c2cc(Cl)ccc2O)c(=O)[nH]c1=S" , what is it?
Out: 45.1

In: Item: CC(C)c1ccc(-n2nnnc2SC(C)c2nnc(-c3ccc([N+](=O)[O-])cc3)o2)cc1 (configuration not stated)
Out: 18.5

In: Okay, and CCC(C)C(=O)Nc1nc(-c2ccc(OC)c(F)c2)cs1 (configuration not stated) ?
Out: 0.73

In: Repeat with "COc1cc(CNc2ccc3nc(C)sc3c2)ccc1OC(F)F"
Out: 78.4

In: How about O=C1C(=C2SCCS2)CCCC12CC2c1ccccc1 (configuration not stated) ?
Out: 50.8

In: Further, for "Brc1ccc(NN=C(N=Nc2nn[nH]n2)c2ccccc2)cc1" ?
Out: 29.1

In: One more compound: COc1ccc2c(c1)OCC(C(=O)C(C#N)c1nc3ccccc3o1)C2 (configuration not stated)
Out: 99.3

In: What do you have for "COc1ccc(NCc2ccc(OC)c(Br)c2)cn1" ?
Out: -17.8

In: Can you handle "CCOC(=O)CSc1nnc(CSc2cc(C)nc(N3CCCC3)n2)o1" next?
Out: 93.2

In: Here is the next compound: COc1c(N2CCNC(C)C2)c(F)cc2c(=O)c(C(=O)O)cn(C3CC3)c12 (configuration not stated)
Out: 98

In: Try this compound too: C=CCn1c(SC(C)c2nc3sc(C)c(C)c3c(=O)[nH]2)nnc1C1CCCCC1 (configuration not stated)
Out: 0.9

In: What about this compound? "O=C(O)c1cc2cc(Cl)sc2s1"
Out: 37

In: Repeat with "CCc1cc(=O)[nH]c(-n2nc(C)cc2N)n1"
Out: 83.4

In: Next up: "C=CCNC(=O)N(Cc1ccccn1)c1ccc(Oc2cccc(F)c2)nc1"
Out: 39.1

In: What about this compound? "CN1/C(=C/C(=O)Nc2ccc(Cl)cc2)C(C)(C)c2ccccc21"
Out: 1.72

In: Param item: COc1cccc(-c2ccccc2NC(=O)C2CCN(CC3CC=CCC3)CC2)c1 (configuration not stated)
Out: 84

In: Here is the next compound: "C[CH2][Hg][S]c1ccccc1C(=O)O"
Out: 102

In: Item: "NC(=O)c1ccnc(N2CCN(Cc3ccc(Cl)c(Cl)c3)CC2)c1"
Out: 89.4

In: Queued: "Cc1ccc(-n2ncc3c(C)nn(Cc4ccccc4F)c(=O)c32)c(C)c1"
Out: 37.1

In: Now the compound "CCc1ccccc1Oc1nc(NC(C)C)nc2ccsc12"
Out: 31.8

In: Note, next up: "Nc1nc(Cl)cc(N2CCN(Cc3ccc4c(c3)OCCO4)CC2)n1"
Out: 6.34

In: Another compound: "CCc1c(C)nc(-n2nc(C)cc2NC(=O)c2ccccc2C(F)(F)F)[nH]c1=O"
Out: 101

In: What do we get for "CCCc1sc(C(=O)Nc2nccs2)cc1CC" ?
Out: 80.5

In: Also check "Oc1ccc(N=Nc2nn[nH]n2)c(O)c1"
Out: 61.7

In: Ok, now COc1cccc(-c2ccccc2NC(=O)C2CCN(CC(C)c3ccccc3)CC2)c1 (configuration not stated)
Out: 74.2

In: Please answer likewise for "Cc1cccc(-n2ncc3c(=O)[nH]c(-n4nc(C)cc4N)nc32)c1"
Out: 102

In: // repeat for "COc1ccc(CNC(=O)Nc2ncc([N+](=O)[O-])s2)cc1" and report
Out: 11.6

In: Also need "O=C(O)c1cc(-c2ccc(Cl)c(Cl)c2)ns1" , thanks.
Out: 90

In: Again, but for "Cc1ccc(-c2nnc(SCC(=O)N3CCC(C)CC3)o2)cc1"
Out: -35.9

In: Quick one: "CN(c1ccccc1)c1nc2ccsc2c(=O)s1"
Out: 58.2

In: Another compound: "COC(=O)c1c(C)oc2ccc(OCC(=O)c3ccc(F)cc3)cc12"
Out: 87.5

In: Please give the result for "COc1ccc(OCc2cc(C(=O)N3CCCCCC3)no2)c(Cl)c1" too.
Out: 42

In: And the next one, "c1ccc(-n2nnnc2SCCNc2nc3ccccc3[nH]2)cc1" ?
Out: 42.9

In: Same read-out for "O=C(O)c1cccc2cccc(-c3cccc4cccc(C(=O)O)c34)c12" ?
Out: 37

In: Subsequent entry: "O=S(=O)(Nc1ncnc2sc3c(c12)CCC3)c1cccs1"
Out: 101

In: Next compound: "O=[N+]([O-])c1ccc(Sc2nnnn2-c2ccccc2)c([N+](=O)[O-])c1"
Out: 89.6

In: Then this compound: "CN(C)c1cc(-c2noc(Cc3ccccc3Cl)n2)ccn1"
Out: 67

In: Another compound to check: "CC(C)(C)NC(=O)COc1ccc2oc3c(c2c1)CCCC3"
Out: 31.6

In: Next record, please: CCOP1(=S)C(=C2N(C)c3ccccc3C2(C)C)C=NN1c1ccccc1 (configuration not stated)
Out: 27.1
